- EXPERIMENTAL_SYSTEM: human FLAP (Homo sapiens (Human), UniProt P20292)
- Sequence (P20292 whole entry): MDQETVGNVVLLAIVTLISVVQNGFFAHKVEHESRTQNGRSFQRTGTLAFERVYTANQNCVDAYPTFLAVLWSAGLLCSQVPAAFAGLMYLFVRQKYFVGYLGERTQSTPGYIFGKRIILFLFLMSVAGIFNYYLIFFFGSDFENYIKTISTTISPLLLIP
- EXPERIMENT_SUMMARY: FLAP binding assay (HTRF format)
- STUDY_CONDITIONS: wild type FLAP, HTRF format
pKi: −log10 of the molar value. Where a name gives a salt, the structure may show the parent alone.
ENDPOINT_NAME: pKi

The cases that follow already have their pKi on record.
COMPOUND	NUMBER
Nc1cnc(-c2ccc(-c3ccccc3N3CCCCS3(=O)=O)cc2F)cn1 [Example 857]	7.55
CC(C)(C)NS(=O)(=O)c1ccccc1-c1ccc(-c2cnc(N)c(Cl)c2)c(F)c1 [Example 451, trifluoroacetic acid salt]	8.70

1. Fc1cc(-c2ccccc2Oc2ncccn2)ccc1-c1cnc2[nH]ccc2c1 [Example 525]
2. C[C@H](CO)NS(=O)(=O)c1ccccc1-c1ccc(-c2nnc(N)s2)c(F)c1 [Example 439]
Lab notebook, comparison: 1 versus 2 , higher pKi goes to which? Return value: the label identifying the chosen record.
1

* * *

- EXPERIMENTAL_SYSTEM: human FLAP (Homo sapiens (Human), UniProt P20292)
- EXPERIMENT_SUMMARY: FLAP binding assay (HTRF format)
- STUDY_CONDITIONS: human FLAP wild type, HTRF format; average of two plates, duplicates
pKi: −log10 of the molar value. Counter-ions that a name gives are not always drawn.
ENDPOINT_NAME: pKi

COMPOUND	pKi
CC(C)(CO)CNS(=O)(=O)c1ccccc1-c1ccc(-c2cnc(N)nc2)c(F)c1 [Example 251]	8.30
NC(=O)NCCNS(=O)(=O)c1ccccc1-c1ccc(-c2cnc(N)cn2)c(F)c1 [Example 157]	8.00
Nc1ncc(-c2ccc(-c3ccccc3S(=O)(=O)NC3CC3)cc2F)cn1 [Example 284, trifluoroacetic acid salt]	7.38
Nc1cnc(-c2ccc(-c3ccccc3CSc3cc(N)ncn3)cc2F)cn1 [Example 238, hydrochloride]	8.30
Nc1ncc(-c2ccc(-c3ccccc3Sc3ccncn3)cc2F)cn1 [Example 214, formate salt]	7.92

I. O=S(=O)(c1ccccc1-c1ccc(-c2cnc3[nH]ccc3n2)c(F)c1)N1CCOCC1 [Example 375]
II. CN([C@H]1CCCNC1)S(=O)(=O)c1ccccc1-c1ccc(-c2cnc(N)cn2)c(F)c1 [Example 115]
Param metric = pKi; output whichever of I , II has the minimum value. Return value: the label identifying the chosen record.
II
(II: 8.40, I: 8.70)

* * *

- EXPERIMENTAL_SYSTEM: human FLAP (Homo sapiens (Human), UniProt P20292)
- EXPERIMENT_SUMMARY: FLAP binding assay (HTRF format)
- STUDY_CONDITIONS: human FLAP wild type, HTRF format; average of two plates, duplicates
Where a name gives a salt, the structure may show the parent alone.
ENDPOINT_NAME: Ki (nM)

The cases that follow already have their Ki on record.
COMPOUND	NUMBER
CC(C)(C)NS(=O)(=O)c1ccccc1-c1ccc(-c2cnc(N)nc2)c(F)c1 [Example 305, trifluoroacetic acid salt]	2
Nc1cnc(S(=O)(=O)c2ccccc2-c2ccc(-c3cnc(N)nc3)c(F)c2)nc1 [Example 339, hydrochloride]	2500
Nc1cnc(-c2ccc(-c3ccccc3S(=O)(=O)N[C@H]3CCNC3=O)cc2F)cn1 [Example 107]	16
Nc1cnc(-c2ccc(-c3ccccc3S(=O)(=O)N3CCS(=O)(=O)CC3)cc2F)cn1 [Example 45]	3
CCS(=O)(=O)Nc1ccccc1-c1ccc(-c2cnc(N)cn2)c(F)c1 [Example 35]	36
Nc1ncc(-c2ccc(-c3ccccc3S(=O)(=O)N3CCNC[C@@H]3CO)cc2F)cn1 [Example 258]	243
Cc1cnc(NS(=O)(=O)c2ccccc2-c2ccc(-c3cnc(N)cn3)c(F)c2)cn1 [Example 167]	47
Nc1cnc(-c2ccc(-c3ccccc3S(=O)(=O)N[C@@H]3CCc4ccccc43)cc2F)cn1 [Example 23]	1

A. CC(CO)(CO)NS(=O)(=O)c1ccccc1-c1ccc(-c2cnc(N)cn2)c(F)c1 [Example 147]
B. C[C@@H](O)CNS(=O)(=O)c1ccccc1-c1ccc(-c2cnc(N)nc2)c(F)c1 [Example 278]
C. Nc1ncc(-c2ccc(-c3ccccc3S(=O)(=O)C3CC3)cc2F)cn1 [Example 254]
D. Nc1ncc(-c2ccc(-c3ccccc3S(=O)(=O)CCCn3c(=O)[nH]c4ccccc43)cc2F)cn1 [Example 318]
# sort list by recorded Ki, greatest to least As an answer, provide the labels arranged in the order called for.
D, C, B, A
(D: 689 nM, C: 80 nM, B: 36 nM, A: 1 nM)

* * *

- EXPERIMENTAL_SYSTEM: human FLAP (Homo sapiens (Human), UniProt P20292)
- EXPERIMENT_SUMMARY: FLAP binding assay (HTRF format)
- STUDY_CONDITIONS: wild type FLAP, HTRF format
Structures can show the parent of a compound that is named as a salt.
ENDPOINT_NAME: Ki (nM)

The cases that follow already have their Ki on record.
COMPOUND	QUANTITY_UNIT	Ki
Nc1ncc(-c2ccc(-c3ccccc3S(=O)(=O)N3CCCC(CCO)C3)cc2F)cc1F (racemic)	nM	15.7
Nc1cnc(Sc2ccccc2-c2ccc(-c3cnc(N)nc3)c(F)c2)cn1	nM	15.5
CC(C)(C)NS(=O)(=O)c1ccccc1-c1ccc(-c2coc(N)n2)c(F)c1	nM	8
Cn1cc(-c2ccccc2-c2ccc(-c3cnc(N)cn3)c(F)c2)cn1	nM	8.1

1. CNS(=O)(=O)c1ccccc1-c1ccc(-c2cnc(N)nc2)c(F)c1F [Example 465, trifluoroacetic acid salt]
2. C[C@@H](O)CNS(=O)(=O)c1ccccc1-c1ccc(-c2cnc(N)nc2)nc1
Lab notebook, comparison: 1 versus 2 , higher Ki goes to which? Return value: the label identifying the chosen record.
2
(2: 485 nM, 1: 186 nM)

A. N#Cc1nc(N)cnc1-c1ccc(-c2ccc(C(F)(F)F)cc2Oc2ncccn2)cc1F
B. CN(c1ccccc1-c1ccc(-c2cnc(N)cn2)c(F)c1)S(C)(=O)=O
Lab notebook, comparison: A versus B , higher Ki goes to which? Return value: the label identifying the chosen record.
B

I. Nc1cnc(-c2ccc(-c3cccnc3S(=O)(=O)C3CCS(=O)(=O)CC3)cc2F)cn1
II. Nc1cnc(-c2ccc(-c3ccc(C(F)(F)F)cc3CN3CCOCC3)cc2F)cn1
Lab notebook, comparison: I versus II , higher Ki goes to which? Return value: the label identifying the chosen record.
I

I. CC(C)c1ccccc1-c1ccc(-c2cnc(N)cn2)c(F)c1
II. Nc1cnc(-c2ccc(-c3ccccc3C(=O)N3CC(O)C3)cc2F)cn1
Param metric = Ki; output whichever of I , II has the minimum value. Return value: the label identifying the chosen record.
I
(I: 120 nM, II: 940 nM)

* * *

- EXPERIMENTAL_SYSTEM: UniProt P20292
- EXPERIMENT_SUMMARY: FLAP binding assay (HTRF format)
- STUDY_CONDITIONS: human FLAP wild type, HTRF format; average of two plates, duplicates
Structures can show the parent of a compound that is named as a salt.
ENDPOINT_NAME: Ki (nM)

The cases that follow already have their Ki on record.
MOLECULE	Ki, nM
CC(C)[C@@H](CO)NS(=O)(=O)c1ccccc1-c1ccc(-c2cnc(N)nc2)c(F)c1 [Example 271, trifluoroacetic acid salt]	51
Nc1cnc(-c2ccc(-c3ccccc3S(=O)(=O)NCCc3ccccc3)cc2F)cn1 [Example 17]	2
CN(C)S(=O)(=O)c1ccccc1-c1ccc(-c2cnc(N)nc2)c(F)c1 [Example 299, trifluoroacetic acid salt]	121
CC(C)(NS(=O)(=O)c1ccccc1-c1ccc(-c2ccc(N)nc2)c(F)c1)C(F)(F)F [Example 350]	2

a. Nc1cnc(-c2ccc(-c3ccccc3S(=O)(=O)N[C@H]3CCNC3)cc2F)cn1 [Example 154]
b. CCCCCCS(=O)(=O)c1ccccc1-c1ccc(-c2cnc(N)cn2)c(F)c1 [Example 198]
c. C[C@@H](NS(=O)(=O)c1ccccc1-c1ccc(-c2cnc(N)cn2)c(F)c1)C(F)(F)F [Example 127]
d. CN1CCN(S(=O)(=O)c2cc(C(F)(F)F)ccc2-c2ccc(-c3cnc(N)cn3)c(F)c2)CC1 [Example 212]
Let's sort these by Ki, smallest first. Go ahead? As an answer, provide the labels arranged in the order called for.
d, c, a, b
(d: 1 nM, c: 2 nM, a: 29 nM, b: 83 nM)

* * *

Measured Ki, listed per entry for reference.
- EXPERIMENTAL_SYSTEM: human FLAP (Homo sapiens (Human))
- EXPERIMENT_SUMMARY: FLAP binding assay (HTRF format)
- STUDY_CONDITIONS: read-out: FLAP Binding wild type HTRF Ki
Counter-ions that a name gives are not always drawn.
Write down the numeric answer in nM and omit the unit.

MOLECULE	Ki [nM]
Nc1ncc(-c2ccc(-c3ccccc3S(=O)(=O)N[C@H](c3ccccc3)C(F)(F)F)cc2F)cn1 [Example 291, trifluoroacetic acid salt]	7
CC(C)(CO)NS(=O)(=O)c1ccccc1-c1ccc(-c2cnc(N)nc2)c(F)c1 [Example 280, trifluoroacetic acid salt]	3
Nc1cnc(-c2ccc(-c3ccccc3Sc3cnccn3)cc2F)cn1 [Example 218, hydrochloride]	3

What measured Ki goes with CC(C)(C)S(=O)(=O)c1ncccc1-c1ccc(-c2cnc(N)nc2)c(F)c1 [Example 811, formic acid salt] ?
315
